study_system: T1, human ASIC1/ASIC3 channels (co-expressed human ASIC1a and human ASIC3) (human, UniProt Q9UHC3 1-531)
T1 construct: whole, on cells; 3T3 cells co-expressing both subunits; also called 3T3/hASIC1/3; 3T3-hASIC1/ASIC3
T1 sequence 1: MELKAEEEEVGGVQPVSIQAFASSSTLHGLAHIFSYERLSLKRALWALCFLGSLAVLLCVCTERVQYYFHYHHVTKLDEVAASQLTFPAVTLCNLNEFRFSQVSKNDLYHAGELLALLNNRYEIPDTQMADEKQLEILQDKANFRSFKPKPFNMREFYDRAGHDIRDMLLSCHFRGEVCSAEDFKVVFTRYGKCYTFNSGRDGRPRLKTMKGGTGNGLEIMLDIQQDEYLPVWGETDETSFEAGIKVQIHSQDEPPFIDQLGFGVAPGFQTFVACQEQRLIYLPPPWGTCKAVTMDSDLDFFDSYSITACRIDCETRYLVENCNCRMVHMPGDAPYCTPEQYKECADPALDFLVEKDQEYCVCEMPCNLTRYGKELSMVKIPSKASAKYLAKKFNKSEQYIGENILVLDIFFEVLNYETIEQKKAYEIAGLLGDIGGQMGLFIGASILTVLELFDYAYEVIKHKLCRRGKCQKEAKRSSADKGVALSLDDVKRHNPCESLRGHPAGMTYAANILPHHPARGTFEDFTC
T1 sequence 2: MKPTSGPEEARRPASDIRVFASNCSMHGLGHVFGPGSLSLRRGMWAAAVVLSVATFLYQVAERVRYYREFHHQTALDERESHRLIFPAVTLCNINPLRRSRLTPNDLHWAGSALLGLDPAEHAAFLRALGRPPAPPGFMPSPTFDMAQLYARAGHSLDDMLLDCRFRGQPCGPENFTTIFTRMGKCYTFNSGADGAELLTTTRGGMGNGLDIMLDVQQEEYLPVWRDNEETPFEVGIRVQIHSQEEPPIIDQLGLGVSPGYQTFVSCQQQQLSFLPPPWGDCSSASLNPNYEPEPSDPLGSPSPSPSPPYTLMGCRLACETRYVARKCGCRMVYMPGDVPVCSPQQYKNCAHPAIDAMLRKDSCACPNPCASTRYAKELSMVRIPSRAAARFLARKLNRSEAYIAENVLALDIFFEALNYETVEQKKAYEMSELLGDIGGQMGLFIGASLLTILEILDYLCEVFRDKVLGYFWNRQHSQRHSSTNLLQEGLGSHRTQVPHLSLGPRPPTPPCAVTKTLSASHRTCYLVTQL
experiment_summary: FACS, 3T3/hASIC1/3 cells, 10 nM antibody
experimental_endpoint: binding result

• H3M6715N (antibody, V domains shown, Chimeric: human variable, mouse constant domains; H3M prefix marks the Fc, isotype not spelled out) VH: EELVLESGGGLVQPGGSLRLSCAASGFMFSTYAMSWVRQAPGKGLEWVSLISGRDGNTYYADSVKGRFTISRDNSRNTLYLQLNSLRAEDTALYYCAKDTAVVPGYGMDVWGQGTTVTVSS VL: DIQMTQSPATLSASVGDRVTITCRASQTISNWLAWYQQRPGKAPKLLIYKASSLETGVPSRFSGSGSGTEFTLTISSLQPDDFASYYCQQYNSYSWTFGQGTKVEIK = binds
• H3M6726N (antibody, V domains shown, Chimeric: human variable, mouse constant domains; H3M prefix marks the Fc, isotype not spelled out) VH: EVQLLESGGVLVQPGGSLRLSCAASGFNFNNYDMSWVRQAPGKGLEWVSVISASGRNTYYADSVKGRFTISRDNSKISLYLQMNSLRPEDTAVYYCAKDHLVHYYYGMDVWGQGTTVTVSS VL: DIMMTQSPLSLSVTPGEPASISCRSSQSLLHSNGYNYLDWYLQKSGQSPHLLIYLGSNRASGVPDRFSGSGSGTDFTLKISRVEAEDGGVYYCMQALQTPRTFGQGTKVEIK = binds
